tested on: FLAG-Ago1 (Drosophila melanogaster, UniProt A1Z9J5 1-950)
Sequence (A1Z9J5 entry or part of it): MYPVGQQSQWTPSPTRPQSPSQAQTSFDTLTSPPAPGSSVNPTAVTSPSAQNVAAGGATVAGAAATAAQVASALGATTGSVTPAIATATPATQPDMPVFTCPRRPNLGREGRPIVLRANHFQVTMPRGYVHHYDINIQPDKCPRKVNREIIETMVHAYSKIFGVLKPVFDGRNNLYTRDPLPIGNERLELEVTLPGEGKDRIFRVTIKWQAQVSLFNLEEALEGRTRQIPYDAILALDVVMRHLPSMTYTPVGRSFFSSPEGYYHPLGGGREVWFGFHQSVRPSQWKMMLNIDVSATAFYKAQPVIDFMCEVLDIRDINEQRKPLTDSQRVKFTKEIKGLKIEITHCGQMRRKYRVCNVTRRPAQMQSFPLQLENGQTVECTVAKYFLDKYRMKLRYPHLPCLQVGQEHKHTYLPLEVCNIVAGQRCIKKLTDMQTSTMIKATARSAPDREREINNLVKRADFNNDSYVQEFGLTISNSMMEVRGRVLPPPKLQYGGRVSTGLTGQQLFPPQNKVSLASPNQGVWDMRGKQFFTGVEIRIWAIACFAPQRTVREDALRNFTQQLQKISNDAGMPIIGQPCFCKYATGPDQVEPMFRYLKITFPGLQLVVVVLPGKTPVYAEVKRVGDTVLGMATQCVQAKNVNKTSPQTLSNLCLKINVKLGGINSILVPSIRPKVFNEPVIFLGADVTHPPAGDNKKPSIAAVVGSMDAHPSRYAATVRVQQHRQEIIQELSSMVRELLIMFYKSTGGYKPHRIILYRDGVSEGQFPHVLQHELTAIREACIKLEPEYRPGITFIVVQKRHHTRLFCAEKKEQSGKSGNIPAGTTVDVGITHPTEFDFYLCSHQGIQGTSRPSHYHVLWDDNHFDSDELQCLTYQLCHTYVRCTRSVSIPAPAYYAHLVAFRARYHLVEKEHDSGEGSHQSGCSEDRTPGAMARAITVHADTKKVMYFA
assay summary: RBNS; bantam guide; RBNS: 20 mM HEPES-KOH pH 7.9, 100 mM KOAc, 3.5 mM Mg(OAc) (magnesium acetate), 0.05% CHAPS, 2 mM DTT, 8% glycerol, BSA, tRNA, 25 C 2 h; filter binding: 25 mM HEPES-KOH pH 7.9, 110 mM KOAc, 3.5 mM magnesium acetate, 2 mM DTT, BSA, tRNA, 8% glycerol, 25 C 2 h; competition: 18 mM HEPES-KOH pH 7.4, 100 mM KOAc, 3 mM magnesium acetate, 5 mM DTT, 0.01% IGEPAL, tRNA, 25 C 1 h
recorded conditions: protein: recombinant; tags: FLAG; g3-g8
assay endpoint: pKd
// scale note: pKd = -log10(conc_M); give the bare number

Exercise: Return the recorded pKd value; entry: bantam / 6mer-m8 (dsRNA, guide 5' phosphate) RNA 1: UGAGAUCAUUUUGAAAGCUGAUU RNA 2: UGAUCU
Solution: 8.99
